system: CEM cells HIV-1 protection, formazan growth assay; assay: NCI AIDS Antiviral Assay; details: measured here: growth of uninfected CEM cells
OBSERVED_PROPERTY: IC50

- COMPOUND: "O=c1[nH]cnc2c1ncn2C1C=CC(CO)CC1 (centres undefined)"
  OBSERVED_PROPERTY: "IC50"
  REPORTED: "> 200 µM"

INPUT: I would be grateful if you could share the reported IC50 for "CN1CCN(c2nc3c(c(=O)n(C)c(=O)n3C)n2C)CC1" .
OUTPUT: > 759 µM

INPUT: Also check CCOC(=O)C(c1ccccc1)c1cccc(C(C(=O)OCC)c2ccccc2)n1 (centres undefined)
OUTPUT: > 17.8 µM

INPUT: Also check "CC(C)S(=O)(=O)ON1C(=O)c2ccc(N(C)C)cc2C1=O"
OUTPUT: > 83.2 µM

====

system: CEM cells HIV-1 protection, formazan growth assay; assay: NCI AIDS Antiviral Assay;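 active means compounds giving half or more protection of infected cells from virus-caused growth loss, again on retest; inactive means the rest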
// one of 1 (yes) (active), 0 (no) (inactive), no free text

Please review the entries below; each comes with its answer.
- COMPOUND: "CCC(N)Cc1c[nH]c2ccccc12 (centres undefined)"
  QUALITATIVE_LABEL: "0 (no)"
- COMPOUND: "C=CCOc1ccc(C2(c3ccc(OCC=C)cc3)C(=O)Nc3ccccc32)cc1"
  QUALITATIVE_LABEL: "0 (no)"
- COMPOUND: "Cc1nc(-n2nc(-c3ccccc3)cc2-c2ccccc2)sc1C(/C=C/c1ccc([N+](=O)[O-])cc1)=N/NC(N)=S"
  QUALITATIVE_LABEL: "0 (no)"
- COMPOUND: "COc1ccc(NC(C)=O)cc1N1C(=O)/C(=C\\c2cccc(Oc3ccccc3)c2)S(=O)(=O)C1c1ccccc1 (centres undefined)"
  QUALITATIVE_LABEL: "0 (no)"
- COMPOUND: "CC(=O)N/N=C(\\N)c1nc2c(n3nc(C)nc13)CCCC2"
  QUALITATIVE_LABEL: "0 (no)"
- COMPOUND: "CC1CCOc2ccc(cc2)C=Nc2ccc(cc2)CCc2ccc(cc2)N=Cc2ccc(cc2)OCC1 (centres undefined)"
  QUALITATIVE_LABEL: "0 (no)"
- COMPOUND: "COc1ccc(CC(CO)NC(=O)OCc2ccccc2)cc1Oc1ccc(CC(CO)NC(=O)OCc2ccccc2)cc1 (centres undefined)"
  QUALITATIVE_LABEL: "0 (no)"
- COMPOUND: "CC(=O)OCCn1c(Cc2ccc([N+](=O)[O-])cc2)nn(C(C)=O)c1=O"
  QUALITATIVE_LABEL: "0 (no)"

INPUT: GET /call?item= "COC(=O)C(=O)/C(=C\N1C(=O)CC(=O)NC1=S)C(=O)c1ccc([N+](=O)[O-])cc1" returns the recorded outcome of this test.
OUTPUT: 0 (no)

INPUT: Also check "O=[N+]([O-])[O-].O=[N+]([O-])[O-].[Au].[Au].c1ccc([P-]c2ccccc2)cc1.c1ccc([P-]c2ccccc2)cc1"
OUTPUT: 0 (no)

====

tested on: CEM cells HIV-1 protection, formazan growth assay; assay: NCI AIDS Antiviral Assay; details: measured here: growth of uninfected CEM cells
OBSERVED_PROPERTY: IC50 (µM)
Enter your answer as a number in µM; do not include the unit.

Solved cases below.
- MOLECULE: "COc1ccccc1NC(=O)/C(=C/n1c(=S)sc2ccccc21)C(C)=O"
  UNIT_LABEL: "µM"
  IC50: 115
- MOLECULE: "C[S+]1Cc2nc3ccccc3n2C1c1c(F)cccc1F (centres undefined)"
  UNIT_LABEL: "µM"
  IC50: 79.4
- MOLECULE: "CC1OC(c2ccccc2)=CC(OCc2ccccc2)[C@H]1OCc1ccccc1 (some centres undefined)"
  UNIT_LABEL: "µM"
  IC50: 91.2
- MOLECULE: "CC(C)Sc1nc(C#N)cc2c1CCCC2"
  UNIT_LABEL: "µM"
  IC50: 57.5
- MOLECULE: "NC1=CN(Cc2ccccc2)C2=N/C(=C\\c3ccccc3)C(=O)N12"
  UNIT_LABEL: "µM"
  IC50: 77.6

INPUT: I would be grateful if you could share the reported IC50 for "CC(=O)c1c(-c2ccccc2)c(-c2ccc(OCCN(C)C)cc2)n2ccccc12" .
OUTPUT: 7.59

INPUT: Also check "COc1ccc(/C=C/C(=O)c2cc(CN(C)C)c(O)c(CN(C)C)c2)cc1"
OUTPUT: 40.7

INPUT: Also check "COc1ccc2nc3cc([N+](=O)[O-])ccc3c(NCCCCCN(C)C)c2c1"
OUTPUT: 0.138

INPUT: Also check "COc1ccc(NC(=O)/C(=C/N2C(=O)/C(=C\C(C)=C\c3ccccc3)SC2=S)C(C)=O)cc1"
OUTPUT: 13.5

INPUT: Also check CC(C)c1ccc(/C=C2\CSCC3=C2NC(=S)NC3c2ccc(C(C)C)cc2)cc1 (centres undefined)
OUTPUT: 42.7
